Data provenance is ChEMBL document CHEMBL4513216.

experiment: Toxicity liver stage against HepG2, at 10uM; assay type: cell-based; set-up: test concentration 10 uM, cell line HepG2-A16-CD81EGFP; details: human, HepG2-A16-CD81EGFP cells; read-out: INHIBITION
Measured Metric: cytotoxicity at 10 µM (%)
// note: answer is a bare numeric in %

Prompt line: Give its cytotoxicity at 10 µM value. Item: Cn1cc(CN(CC2(O)CCNC2)C2CCCCC2)cn1 (stereo not given)
Response line: 17.8

Prompt line: Give its cytotoxicity at 10 µM value. Item: CCN(Cc1ccncc1)c1cc(C2CCN2C(C)=O)nc(C)n1 (stereo not given)
Response line: 5.25

Prompt line: Give its cytotoxicity at 10 µM value. Item: CN(C)C(=O)N1CCn2c(Cn3cccn3)cnc2C1
Response line: -76.7

Prompt line: Give its cytotoxicity at 10 µM value. Item: Cc1c(Cl)cccc1NC(=O)c1nc[nH]n1
Response line: -7.93

Prompt line: Give its cytotoxicity at 10 µM value. Item: CO[C@H]1CN(c2ccccc2)S(=O)(=O)[C@@]12CCN(Cc1ccccc1)C2
Response line: -4.86

Prompt line: Give its cytotoxicity at 10 µM value. Item: COc1ccccc1CN(C)Cc1ccnc(C2CCCO2)n1 (stereo not given)
Response line: 4.65

Prompt line: Give its cytotoxicity at 10 µM value. Item: COCC1Cn2nnc(-c3cnn(C)c3)c2CN1Cc1ccoc1 (stereo not given)
Response line: 6.44

Prompt line: Give its cytotoxicity at 10 µM value. Item: Cc1n[nH]c(=O)c2c(NC(=O)CN3CCC(O)CC3)oc(C)c12
Response line: 1.17

----------
experiment: Toxicity liver stage against HepG2, at 10uM; assay type: cell-based; design: test concentration 10 uM, cell line HepG2-A16-CD81EGFP; details: human, HepG2-A16-CD81EGFP cells; read-out: INHIBITION
Measured Metric: cytotoxicity at 10 µM (%)
// note: answer is a bare numeric in %

Example cases with answers are listed next.
> print(dat)
                                   molecule        measured.metric  units.of.measure  reported.value
1       CC(=O)N(C)c1nc(Cn2nnnc2C(C)(C)C)cs1  cytotoxicity at 10 µM                 %            6.56
2  CC(CNC(=O)NCCCc1cc(N)n(-c2ccccc2)n1)N(C)C (configuration not stated)  cytotoxicity at 10 µM                 %            11.9
3  CC(C)c1cc(C2CCN(C(=O)Cn3cnc4ccccc43)CC2)[nH]n1  cytotoxicity at 10 µM                 %            51.8

Prompt line: Give its cytotoxicity at 10 µM value. Item: CC(C)(C)CCN1CCCC(Cn2cc(CCO)nn2)C1 (configuration not stated)
Response line: -13.9

Prompt line: Give its cytotoxicity at 10 µM value. Item: COCCc1noc(-c2cn(Cc3ccc(OC)cc3)nn2)n1
Response line: 5.07

Prompt line: Give its cytotoxicity at 10 µM value. Item: Cc1cc2c(=O)n3c(nc2s1)CCN(Cc1cnc(C(C)C)nc1)CC3
Response line: 10.5

Prompt line: Give its cytotoxicity at 10 µM value. Item: O=C(O)c1ccccc1C1CCN(Cc2ccc(-c3cc[nH]n3)o2)C1 (configuration not stated)
Response line: -10.2

----------
Recorded cytotoxicity at 10 µM for the following compounds
experiment: Toxicity liver stage against HepG2, at 10uM; assay type: cell-based; set-up: test concentration 10 uM, cell line HepG2-A16-CD81EGFP; settings: human, HepG2-A16-CD81EGFP cells; read-out: INHIBITION
Please don't drop the unit; write it after the number.

Example cases with answers are listed next.
> print(dat)
                                   compound  reported.value
1  O=C(C(c1ccccc1)S(=O)(=O)c1ccccn1)N1CCCCC1 (centres undefined)            5.7%
2  Cn1ncc2c(N3CCCC4(CCNC4)C3)nc(C(C)(C)C)nc21 (centres undefined)          -45.8%
3            N#CC1(C(=O)NCc2ccc(F)cc2)CCCC1           7.57%
4    COCC(=O)N1CCc2nc(C(=O)Nc3cccnc3)sc2CC1           7.98%
5  Cc1cc(NC(=O)NCC(C)N2CCOCC2)n(C)n1 (centres undefined)          -18.3%
6  COCC(NC(=O)NCc1cccc(Cl)c1)c1ccco1 (centres undefined)            6.4%

Prompt line: Give its cytotoxicity at 10 µM value. Item: CN1CCC(c2nccnc2Nc2cnccn2)CC1
Response line: -4.27%

Prompt line: Give its cytotoxicity at 10 µM value. Item: Cc1ccc(Oc2cc(CN)ccn2)cc1C
Response line: -0.578%

Prompt line: Give its cytotoxicity at 10 µM value. Item: CCN(CC)Cc1cc(C(=O)N2CCCC(CC)(C(=O)O)C2)c(C)o1 (centres undefined)
Response line: 7.25%

----------
assay: Toxicity liver stage against HepG2, at 10uM; format: cell-based; set-up: test concentration 10 uM, cell line HepG2-A16-CD81EGFP; details: human, HepG2-A16-CD81EGFP cells; read-out: INHIBITION
Recorded cytotoxicity at 10 µM for the following compounds
// note: answer is a bare numeric in %

Example cases with answers are listed next.
> print(dat)
                                   compound  reported.value
1  CC(C(=O)Nc1ccc(N2CCCC2)nc1)n1cccn1 (configuration not stated)           -17.1
2  Cn1ccnc1CC1CCCN(Cc2noc(C3CC3)n2)C1 (configuration not stated)           -5.68
3   CCC(CC)C(=O)NCc1c(C)nn(C)c1N1CCCN(C)CC1           0.295

Prompt line: Give its cytotoxicity at 10 µM value. Item: CCCn1nccc1C(=O)N1CCCN(CCCc2ccccc2)CC1
Response line: -2.06

Prompt line: Give its cytotoxicity at 10 µM value. Item: CCCN1CCCn2c(nc(CNC(=O)N3CCCC3)cc2=O)C1
Response line: 12.1

Prompt line: Give its cytotoxicity at 10 µM value. Item: CCN(C)C(=O)[C@H]1C[C@@](CC(C)C)(C(=O)OC)N(C)[C@H]1c1cccnc1
Response line: 0.779

Prompt line: Give its cytotoxicity at 10 µM value. Item: O=C(CCO)N1CC2(CCN(c3ccccc3)C2)C1
Response line: 8.76

----------
assay: Toxicity liver stage against HepG2, at 10uM; type: cell-based; set-up: test concentration 10 uM, cell line HepG2-A16-CD81EGFP; details: human, HepG2-A16-CD81EGFP cells; read-out: INHIBITION
Measured Metric: cytotoxicity at 10 µM
Please don't drop the unit; write it after the number.

Example cases with answers are listed next.
> print(dat)
                                   compound        measured.metric  reported.value
1  Cc1ccc(CN(C)C(=O)CN2CCCC2Cn2cncn2)cc1 (centres undefined)  cytotoxicity at 10 µM           7.84%
2  Cc1nc(N2CCOCC2)sc1C(=O)NCC(C)(C)N1CCCCC1  cytotoxicity at 10 µM            5.7%
3  Cc1ccc(-c2noc(C3CCN3C(=O)c3c(C)noc3C)n2)s1 (centres undefined)  cytotoxicity at 10 µM           6.09%
4  CS(=O)(=O)N1CCC(NCC2(N3CCOCC3)CCCCC2)CC1  cytotoxicity at 10 µM          -3.27%
5  CCn1c(C)nnc1SCCNC(=O)CC1CCc2ccccc21 (centres undefined)  cytotoxicity at 10 µM          -1.26%
6   NC(=O)CCOc1ccc(NC(=O)c2ccccc2OC(F)F)cc1  cytotoxicity at 10 µM           9.62%
7  COCc1c(C(=O)N2CCCC(C(=O)c3ccccc3)C2)noc1C (centres undefined)  cytotoxicity at 10 µM          -2.54%
8  CC(=O)N1CCCCCC1C1CCN(c2ncccc2C#N)CC1 (centres undefined)  cytotoxicity at 10 µM          -7.13%

Prompt line: Give its cytotoxicity at 10 µM value. Item: CC(Cn1cccn1)NC(=O)Nc1ccc(F)cc1 (centres undefined)
Response line: 19.7%

----------
assay: Toxicity liver stage against HepG2, at 10uM; assay type: cell-based; parameters: test concentration 10 uM, cell line HepG2-A16-CD81EGFP; conditions: human, HepG2-A16-CD81EGFP cells; read-out: INHIBITION
Measured Metric: cytotoxicity at 10 µM (%)
// note: answer is a bare numeric in %

Example cases with answers are listed next.
> print(dat)
                                   compound        measured.metric  reported.value
1  COCCCN1CC2(CCCN(c3ncnc4[nH]cnc34)C2)CCC1=O (centres undefined)  cytotoxicity at 10 µM           -2.95
2  O=C1CC(c2ccc3c(c2)OCO3)c2cnn(C3CCCC3)c2N1 (centres undefined)  cytotoxicity at 10 µM            24.3
3  CC(C)(C)c1nc(CC(=O)NCCC(=O)Nc2ccncc2)cs1  cytotoxicity at 10 µM            12.8

Prompt line: Give its cytotoxicity at 10 µM value. Item: N#Cc1cnc(NC2CCN(C(=O)C3CC3)CC2)c(Cl)c1
Response line: -7.32

Prompt line: Give its cytotoxicity at 10 µM value. Item: CCN(CC)CCNc1nc(C(C)C)nc2c(C)nn(CC)c12
Response line: 8.99

Prompt line: Give its cytotoxicity at 10 µM value. Item: CCC(C(=O)N(C)Cc1cc(C2CC2)[nH]n1)n1cccn1 (centres undefined)
Response line: -8.35
